Tested on: CCRIS mutagenicity, Ames/micronucleus/aberration tests
Assay: CCRIS mutagenicity studies
Settings: Test System: AMES SALMONELLA TYPHIMURIUM; Strain/Indicator: TA100; Metabolic Activation: NONE; Method: PREINCUBATION
The source made the active and inactive calls. The rule behind the calls is not given here.
Respond with a class label; see t for active, f for inactive

Worked set:
>  <compound>
C/C=C/C=O

>  <class name>
t

$$$$
>  <compound>
O=Cc1ccccc1Cl

>  <class name>
f

$$$$
>  <compound>
CC(=O)Nc1ccc(C)cc1

>  <class name>
f

$$$$

Prompt line: Assay outcome for `Nc1ccccc1C(=O)OC/C=C/c1ccccc1` : what was it?
Response line: f

Prompt line: Assay outcome for `Brc1c(Br)c(Br)c(Oc2c(Br)c(Br)c(Br)c(Br)c2Br)c(Br)c1Br` : what was it?
Response line: f
